- System: MRSA
- assay summary: In-vitro antimicrobial test (MIC, NCCLS protocol)
- Type: cell-based
- settings: standard NCCLS protocol
reported endpoint: MIC (µg/mL)

1. C[C@@H]1CN(c2c(F)cc3c(=O)c(C(=O)O)cn4c3c2CC[C@@H]4C)CC[C@@H]1O (relative stereo)
0.8

1: C[C@H]1CCc2c(N3CCC(O)CC3)c(F)cc3c(=O)c(C(=O)O)cn1c23 [Ref. 2, reference compound]
2: CCC1CN(c2c(F)cc3c(=O)c(C(=O)O)cn4c3c2CC[C@@H]4C)CCC1O (stereo partly drawn)
Choose between 1 and 2 : whose measured MIC value is numerically larger? Answer = label. 2
(2: 1.56 µg/mL, 1: 0.8 µg/mL)

---

- Tested on: P. aeruginosa
- assay summary: In-vitro antimicrobial test (MIC, NCCLS protocol)
- Type: cell-based
- settings: standard NCCLS protocol
reported endpoint: MIC (µg/mL)

1: CC1CN(c2c(F)cc3c(=O)c(C(=O)O)cn4c3c2CC[C@@H]4C)CCC1O (mixture of isomers) [Compound A]
2: C[C@H]1CN(c2c(F)cc3c(=O)c(C(=O)O)cn4c3c2CC[C@@H]4C)CC[C@H]1O (relative stereo)
Choose between 1 and 2 : whose measured MIC value is numerically larger? Answer = label. 2
(2: 6.25 µg/mL, 1: 3.12 µg/mL)

---

- Test system: MRSA
- assay summary: In-vitro antimicrobial test (MIC, NCCLS protocol)
- Type: cell-based
- settings: standard NCCLS protocol
reported endpoint: MIC (µg/mL)

The cases that follow already have their MIC on record.
1) CC1CCc2c(N3CCC(O)CC3)c(F)cc3c(=O)c(C(=O)O)cn1c23 (racemic) [Ref. 1, reference compound]
1.56
2) CC1CN(c2c(F)cc3c(=O)c(C(=O)O)cn4c3c2CC[C@@H]4C)CCC1O (mixture of isomers) [Compound B]
0.8

P: CC1CN(c2c(F)cc3c(=O)c(C(=O)O)cn4c3c2CC[C@@H]4C)CCC1O (mixture of isomers) [Compound A]
Q: C[C@H]1CN(c2c(F)cc3c(=O)c(C(=O)O)cn4c3c2CC[C@@H]4C)CC[C@H]1O (relative stereo) [Compound C]
Which of these two has the smaller recorded MIC: P or Q ? Answer = label. P
(P: 0.4 µg/mL, Q: 0.8 µg/mL)
